TESTED_ON: T1, HER2 on living HER2-expressing cells (SKOV-3, BT-474) (human, UniProt P04626 23-1255)
T1 construct: whole, on cells; also called HER2 receptors in cells; HER2 on living cells
TEST_DESCRIPTION: LigandTracer, living SKOV-3 cells; KD1 (stronger of two interactions)
Groups on a side chain read outwards from the residue. No end group written: not given here. *: point of attachment. DOTA = O=C(O)CN1CCN(CC(=O)O)CCN(CC(=O)*)CCN(CC(=O)O)CC1
EXPERIMENTAL_ENDPOINT: Kd (nM)
Answer format: numeric, nM implied, no suffix.

I have this binder here, MG-DEAVDANS-ADAPT6-(SSSG)3-ABD035-GSSC-HPEM-125I (designed binder, C-terminal cysteine coupled to 125I-labelled ((4-hydroxyphenyl)ethyl)maleimide (HPEM), also called Inventive 2) MGDEAVDANSLAAAKETALYHLDRLGVADAYKDLIDKAKTVEGVKARYFEILHALPSSSGSSSGSSSGLAEAKVLANRELDKYGVSDFYKRLINKAKTVEGVEALKLHILAALPGSSC , and I need its recorded Kd.
0.6

Name the reported Kd value associated with the binder MG-DEAVDANS-ADAPT6-GSSC-DOTA-177Lu (designed binder, also: 177Lu chelated by DOTA) MGDEAVDANSLAAAKETALYHLDRLGVADAYKDLIDKAKTVEGVKARYFEILHALPGSSC([maleimide-DOTA])
0.337

Which Kd is reported for this binder? MG-DEAVDANS-ABD035-(SSSG)3-ADAPT6-GSSC-HPEM-125I (designed binder, C-terminal cysteine coupled to 125I-labelled ((4-hydroxyphenyl)ethyl)maleimide (HPEM)) MGDEAVDANSLAEAKVLANRELDKYGVSDFYKRLINKAKTVEGVEALKLHILAALPSSSGSSSGSSSGLAAAKETALYHLDRLGVADAYKDLIDKAKTVEGVKARYFEILHALPGSSC
0.15

Record request: Kd value, item MG-DEAVDANS-ADAPT6-GSSC-HPEM-125I (designed binder, C-terminal cysteine coupled to 125I-labelled ((4-hydroxyphenyl)ethyl)maleimide (HPEM), Radioiodinated form of the non-fused control) MGDEAVDANSLAAAKETALYHLDRLGVADAYKDLIDKAKTVEGVKARYFEILHALPGSSC
0.41

I am curious: what Kd value has been reported for MG-DEAVDANS-ABD035-(SSSG)3-ADAPT6-GSSC-DOTA-177Lu (designed binder, C-terminal cysteine coupled to maleimide-DOTA chelating 177Lu) MGDEAVDANSLAEAKVLANRELDKYGVSDFYKRLINKAKTVEGVEALKLHILAALPSSSGSSSGSSSGLAAAKETALYHLDRLGVADAYKDLIDKAKTVEGVKARYFEILHALPGSSC ?
0.432

Find the recorded Kd belonging to MG-DEAVDANS-ADAPT6-(SSSG)3-ABD035-GSSC-DOTA-177Lu (designed binder, C-terminal cysteine coupled to maleimide-DOTA chelating 177Lu, also called Inventive 1) MGDEAVDANSLAAAKETALYHLDRLGVADAYKDLIDKAKTVEGVKARYFEILHALPSSSGSSSGSSSGLAEAKVLANRELDKYGVSDFYKRLINKAKTVEGVEALKLHILAALPGSSC and report it.
0.485
